Can you tell me Kd for the items I'm about to list?
# measured target: T1, human DLL3 (ACRO, DLL3-H52H4) (human, UniProt Q9NYJ7 27-492)
# T1 construct: Bought
# T1 sequence: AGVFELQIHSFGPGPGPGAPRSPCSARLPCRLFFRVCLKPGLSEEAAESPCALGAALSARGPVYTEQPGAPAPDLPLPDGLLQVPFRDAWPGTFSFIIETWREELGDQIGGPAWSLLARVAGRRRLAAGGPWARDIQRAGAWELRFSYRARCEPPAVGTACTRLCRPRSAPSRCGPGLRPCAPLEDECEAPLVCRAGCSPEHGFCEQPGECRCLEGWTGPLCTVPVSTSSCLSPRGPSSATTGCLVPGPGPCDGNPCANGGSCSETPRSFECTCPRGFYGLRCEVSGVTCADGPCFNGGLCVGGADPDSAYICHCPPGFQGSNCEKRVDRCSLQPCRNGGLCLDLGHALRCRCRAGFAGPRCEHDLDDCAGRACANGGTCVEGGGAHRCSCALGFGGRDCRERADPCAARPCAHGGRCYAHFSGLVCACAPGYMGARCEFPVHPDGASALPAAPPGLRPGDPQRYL
# measurement protocol: SPR Biacore 8K, Ab captured on Protein A
# From the text: Test antibodies were affinity-captured with a Protein A biosensor chip (Cat. #29127556, Cytiva) for 18 seconds, and then the antigens human DLL3 (ACRO, DLL3-H52H4), cynomolgus monkey DLL3 (KACTUS, DLL-RM103), mouse DLL3 (KACTUS, DLL-MM103), human CD3D&3E (ACRO, CDD-H52W1), and monkey CD3D&3E (ACRO, CDD-C52W4) were allowed to flow through the surface of the chip for 180 seconds, followed by 600 seconds of dissociation. […]
Hi! Could you send only the number? It should be in nM, unit omitted.

For the binder hu6L2H11 (antibody, human IgG1, kappa, V domains shown) VH: EVQLVQSGSELKKPGASVKVSCKASGYTFTDYYMNWVKQAPGQGLEWMGIINPYSGVTIYNHKFKGRFVLSVDKSSNTAYLQISSLKAEDTAVYYCARQDSLLDYAMDYWGQGTTVTVSS VL: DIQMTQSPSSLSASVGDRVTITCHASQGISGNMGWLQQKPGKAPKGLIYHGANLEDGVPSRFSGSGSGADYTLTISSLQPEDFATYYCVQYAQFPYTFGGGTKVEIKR , what Kd is on record?
0.363

For the binder hu6L4H4 (antibody, human IgG1, kappa, V domains shown) VH: EVQLVQSGAEVKKPGASVKVSCKASGYTFTDYYMNWVRQAPGKRLEWMGIINPYSGVTIYNHKFKGRVTLTVDKSANTAYMELSSLRSEDTAVYYCARQDSLLDYAMDYWGQGTTVTVSS VL: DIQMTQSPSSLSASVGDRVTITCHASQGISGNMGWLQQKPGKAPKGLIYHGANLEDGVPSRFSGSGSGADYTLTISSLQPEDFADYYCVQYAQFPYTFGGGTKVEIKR , what Kd is on record?
1.45

For the binder hu30L5H5 (antibody, human IgG1, kappa, V domains shown) VH: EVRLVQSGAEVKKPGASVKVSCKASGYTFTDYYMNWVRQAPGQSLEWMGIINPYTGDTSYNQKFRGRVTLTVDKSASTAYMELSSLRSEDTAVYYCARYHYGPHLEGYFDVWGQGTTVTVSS VL: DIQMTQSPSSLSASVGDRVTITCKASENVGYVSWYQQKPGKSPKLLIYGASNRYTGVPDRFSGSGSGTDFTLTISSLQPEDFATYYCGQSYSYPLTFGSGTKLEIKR , what Kd is on record?
1.98
